Overview of recorded abundance fitness for various variants
B1: Kinesin-like protein KIF16B, residues 1213 to 1273; numbered along this chain, Q96L93 (parent)
chain: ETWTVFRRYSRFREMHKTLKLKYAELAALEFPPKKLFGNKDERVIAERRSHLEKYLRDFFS

variants of: B1; experiment: abundance fitness (aPCA) (normalised: wild type 0, dead -1); higher = more abundant; growth selection in yeast, the domain comes from the species named; conditions: Homo sapiens
observation type: abundance fitness

ETWTVFRRYSRFREMHKTLKLKYAELAALEFPPKKLQGNKDERVIAERRSHLEKYLRDFFS [F37Q]    -0.476
ETWTVFRRYSRFREMHKRLKLKYAELAALEFPPKKLFGNKDERVIAERRSHLEKYLRDFFS [T18R]    -0.222
ETWTVFRRYSRFREMHKTLKLKYAMLAALEFPPKKLFGNKDERVIAERRSHLEKYLRDFFS [E25M]    -0.409
ETWTVFRRYSRFREMHKTLKLKYAELNALEFPPKKLFGNKDERVIAERRSHLEKYLRDFFS [A27N]    -0.281
ETWTVFRRCSRFREMHKTLKLKYAELAALEFPPKKLFGNKDERVIAERRSHLEKYLRDFFS [Y9C]    0.123
ETWTVFRRYSRFREMHKTLKLKYAELAALEFPPKYLFGNKDERVIAERRSHLEKYLRDFFS [K35Y]    -0.073
ETWTVFRRYSRFREMHKTLKLKYAELAALGFPPKKLFGNKDERVIAERRSHLEKYLRDFFS [E30G]    0.153
ETWTVFRRYSRFREMHKTLKLKYAELAALEFPPKKLFGNGDERVIAERRSHLEKYLRDFFS [K40G]    -0.269
ETWTVFRRYSRTREMHKTLKLKYAELAALEFPPKKLFGNKDERVIAERRSHLEKYLRDFFS [F12T]    -0.907
ETWTVFRRYSRFREMHKTLKLKYAELAALEFPPKKLFGNKDERVISERRSHLEKYLRDFFS [A46S]    0.147
ETWTVFRRYTRFREMHKTLKLKYAELAALEFPPKKLFGNKDERVIAERRSHLEKYLRDFFS [S10T]    0.136
ETWAVFRRYSRFREMHKTLKLKYAELAALEFPPKKLFGNKDERVIAERRSHLEKYLRDFFS [T4A]    -0.087
ETWTVFRRYSRFREMHKTLKLKYAELAALEFPPKKLFLNKDERVIAERRSHLEKYLRDFFS [G38L]    -0.458
ETWTVFRRYSWFREMHKTLKLKYAELAALEFPPKKLFGNKDERVIAERRSHLEKYLRDFFS [R11W]    0.205
ETWTVFRRYSRFREMHKTLKLKYAELAALEFPPKKLFGNKDARVIAERRSHLEKYLRDFFS [E42A]    -0.011
ETWTVFRRYSRFREMHKTLKLKYAELAALEFPPKKLFGNKDERVIAERRSHLEVYLRDFFS [K54V]    -0.289
ETWCVFRRYSRFREMHKTLKLKYAELAALEFPPKKLFGNKDERVIAERRSHLEKYLRDFFS [T4C]    0.079
ETWTVFRRYSRFREMHKTLKLKYAELAALEFPPKKLFGNKDERVIEERRSHLEKYLRDFFS [A46E]    0.037
ETWTVFRRYSRFREMHKTLKLKYLELAALEFPPKKLFGNKDERVIAERRSHLEKYLRDFFS [A24L]    -0.352
ETWTVFRRYSRFREMHKTLKLKYAELAALEFPPKKLFGNKDERVIAWRRSHLEKYLRDFFS [E47W]    0.014
ETWTVFRRYSRFREMHKTLKLKYAELAALEFPPKKLFGNKDERVIAERRPHLEKYLRDFFS [S50P]    0.045
ETWTVFRRYSRFREMHKTLKLKYAELAALEFPPKKLFGNKDERVIAERRSHLEAYLRDFFS [K54A]    -0.251

All values here come from the Human Domainome abundance scans (Beltran et al. 2025).
